Consider the following molecules; for each one, report its EC50.
target: Probable G-protein coupled receptor 139 (Rattus norvegicus, UniProt P0C0W8); assay: Agonist activity at rat GPR139 expressed in CHO-K1 cells assessed as increase in calcium flux by calcium 5 dye based FLIPR assay; format: cell-based
Sequence (P0C0W8 whole entry): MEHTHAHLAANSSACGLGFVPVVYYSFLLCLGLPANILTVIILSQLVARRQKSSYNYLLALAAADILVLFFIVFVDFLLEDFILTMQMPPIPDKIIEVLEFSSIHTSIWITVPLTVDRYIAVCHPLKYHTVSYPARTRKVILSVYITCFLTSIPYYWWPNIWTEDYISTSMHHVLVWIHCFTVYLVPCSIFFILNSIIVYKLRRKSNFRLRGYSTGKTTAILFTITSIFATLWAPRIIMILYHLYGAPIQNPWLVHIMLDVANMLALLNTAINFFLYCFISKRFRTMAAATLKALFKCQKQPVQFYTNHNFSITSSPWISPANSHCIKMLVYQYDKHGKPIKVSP

Some entries whose results are on file:
O=C(Cn1nc2ccc(F)cn2c1=O)NC1(c2cccc(Cl)c2)CC1 = ≥ 0.1 µM
COc1cnn2c(=O)n(CC(=O)N[C@@H](C)c3ccc(Cl)c(F)c3)nc2c1 = < 0.001 µM
C[C@H](NC(=O)Cn1nc2cccc(N3CC(F)(F)C3)n2c1=O)c1ccc(Cl)c(F)c1 = < 0.001 µM
C[C@H](NC(=O)Cn1nc2ccc(F)cn2c1=O)c1ccc(Cl)c(F)c1 = < 0.001 µM
COc1nc2nn(CC(=O)N[C@@H](C)c3ccc(Cl)c(F)c3)c(=O)n2cc1C = < 0.001 µM

Give EC50 for each of the items listed below.
1. C[C@H](NC(=O)Cn1nc2cc(NC3COC3)ccn2c1=O)c1ccc(Cl)c(F)c1
2. COc1ccn2c(=O)n(CC(=O)N[C@@H](C)c3ccc(Cl)c(F)c3)nc2n1
3. C[C@H](NC(=O)Cn1nc2ccc(F)cn2c1=O)c1ccc(Cl)cc1
4. C[C@H](NC(=O)Cn1nc2c(NC3COC3)ccnn2c1=O)c1ccc(OC(F)(F)F)cc1
5. Cc1ccc([C@H](C)NC(=O)Cn2nc3cnccn3c2=O)cc1
6. Cc1cc2nn(CC(=O)N[C@@H](C)c3ccc(Cl)cc3)c(=O)n2c(C)n1

a:
["< 0.001 µM", "< 0.001 µM", "< 0.001 µM", "≥ 0.1 µM", "≥ 0.1 µM", "≥ 0.1 µM"]

// for each molecule below, give its EC50
1. C[C@H](NC(=O)Cn1nc2c(N3CCOCC3)cccn2c1=O)c1ccc(Cl)c(F)c1
2. Cc1ccc([C@H](C)NC(=O)Cn2nc3c(NCC(F)F)cccn3c2=O)cc1
3. Cc1cn2c(=O)n(CC(=O)N[C@@H](C)c3ccc(OC(F)(F)F)cc3)nc2cn1
4. C[C@H](NC(=O)Cn1nc2cc(C3CC3)cnn2c1=O)c1ccc(Cl)c(F)c1
5. O=C(Cn1nc2cccnn2c1=O)NC1(c2cccc(Cl)c2)CC1
6. Cc1cc(C)n2c(=O)n(CC(=O)N[C@@H](C)c3ccc(Cl)cc3)nc2n1
7. C[C@H](NC(=O)Cn1nc2ncc(F)cn2c1=O)c1ccc(Cl)cc1

a:
1: < 0.001 µM; 2: < 0.001 µM; 3: ≥ 0.1 µM; 4: < 0.001 µM; 5: ≥ 0.1 µM; 6: ≥ 0.1 µM; 7: ≥ 0.1 µM

Provide reported EC50 for each item, in the same order as listed.
1. C[C@H](NC(=O)Cn1nc2ncc(F)cn2c1=O)c1ccc(OC(F)(F)F)cc1
2. C[C@H](NC(=O)Cn1nc2cc(N3CCN(C)CC3)ccn2c1=O)c1ccc(OC(F)(F)F)cc1

a:
1: ≥ 0.1 µM; 2: ≥ 0.1 µM
